All figures here come from ChEMBL document CHEMBL1671798.

TARGET: Transthyretin (Homo sapiens)
EXPERIMENT SUMMARY: Displacement of S-phenyl 3-(4-hydroxy-3,5-dimethylstyryl)benzothioate from human TTR assessed as fluorescence at 37 degC after 3 hrs
Design: concentration or dose not given beside the values
# label = T if Activity < 40% else F

Solved entries:
O=C(Nc1cc(Br)c(O)c(Br)c1)c1ccc(O)cc1 ... T
Cc1cccc(CCc2cc(Br)c(O)c(Br)c2)c1 ... T
Oc1c(Br)cc(CCc2ccc(OC(F)F)cc2)cc1Br ... F
O=C(O)c1ccc(C(=O)Nc2cc(Br)c(O)c(Br)c2)cc1 ... F

Ask: In the record for `Oc1c(Br)cc(/C=C/c2ccc(Br)cc2)cc1Br` , is Activity less than 40%?
Reply: T

====

TARGET: Transthyretin (Homo sapiens) (UniProt P02766)
EXPERIMENT SUMMARY: Displacement of 4-fluorophenyl 3-(4-hydroxy-3,5-dimethylstyryl)benzoate from recombinant TTR assessed as fluorescence at 37 degC after 3 hrs
Design: concentration or dose not given beside the values
READOUT KIND: Activity

Worked examples follow.
O=C(Nc1cc(Br)c(O)c(Br)c1)c1cccc(F)c1 ... 18%
O=C(O)c1cc(-c2ccc(F)cc2F)ccc1O ... 75%
O=C(Nc1cc(Br)c(O)c(Br)c1)c1cccc(Br)c1 ... 13%
O=C(Nc1cc(Br)c(O)c(Br)c1)c1ccc(O)cc1 ... 32%
CC(C(=O)O)c1ccc(-c2ccccc2)c(F)c1 (stereo not given) ... 93%

Ask: Reported Activity for Transthyretin (Homo sapiens) (UniProt P02766), given `O=C(Nc1ccccc1)c1cc(Br)c(O)c(Br)c1` ?
Reply: 42%

Ask: Could you do the same for `O=C(O)c1ccccc1Nc1cccc(C(F)(F)F)c1` , please?
Reply: 44%

Ask: And the next one, `Cc1cc(Oc2ccccc2)cc(C)c1O` ?
Reply: 76%

Ask: Now the compound `Oc1c(Br)cc(/C=C/c2ccc(Br)cc2)cc1Br`
Reply: -6%

Ask: Could you do the same for `O=C(O)Cc1ccccc1Nc1c(Cl)cccc1Cl` , please?
Reply: 85%

====

TARGET: Transthyretin (Homo sapiens)
EXPERIMENT SUMMARY: Inhibition of wild type-TTR expressed in Escherichia coli assessed as amyloid fibril formation at pH 4.4 at 7. 2 uM after 72 hrs by acid-mediated aggregation assay relative to control
Parameters: scale not given: the % may be the effect or the level left
# Activity values compiled below
API: value field is a number in %; no unit string.

Reference set, count: 10
COc1c(Cl)cc(C(=O)Nc2cc(Br)c(O)c(Br)c2)cc1Cl ... 9
O=C(O)c1ccc(C(=O)Nc2cc(Br)c(O)c(Br)c2)cc1 ... 11
COc1ccccc1/C=C/c1cc(Br)c(O)c(Br)c1 ... 0
O=C(Nc1cc(Br)c(O)c(Br)c1)c1ccccc1O ... 2
CC(C(=O)O)c1ccc(-c2ccccc2)c(F)c1 (stereo not given) ... 29
O=C(Nc1cc(Br)c(O)c(Br)c1)c1cccc(F)c1 ... 13
O=C(Nc1cc(Br)c(O)c(Br)c1)c1ccc(O)cc1 ... 21
Oc1c(Br)cc(CCc2ccc(OC(F)F)cc2)cc1Br ... 1
COc1cc(CCc2cc(Br)c(O)c(Br)c2)cc(OC)c1 ... 1
O=C(Nc1cc(Br)c(O)c(Br)c1)c1cccc(Br)c1 ... 8

Ask: Form field: reported Activity of `Nc1cccc(C(=O)Nc2cc(Br)c(O)c(Br)c2)c1`
Reply: 25

====

TARGET: Transthyretin (Homo sapiens) (UniProt P02766)
EXPERIMENT SUMMARY: Displacement of 4-fluorophenyl 3-(4-hydroxy-3,5-dimethylstyryl)benzoate from recombinant TTR assessed as fluorescence at 37 degC after 3 hrs
Parameters: concentration or dose not given beside the values
Returns 1 (yes) if the recorded Activity is greater than or equal to 40%, and 0 (no) otherwise.

Worked examples follow.
O=C(Nc1cc(Br)c(O)c(Br)c1)c1ccccc1O ... 0 (no)
O=C(Nc1ccccc1)Nc1cc(Br)c(O)c(Br)c1 ... 1 (yes)
Cc1ccc(Cl)c(Nc2ccccc2C(=O)O)c1Cl ... 1 (yes)
COc1c(Cl)cc(C(=O)Nc2cc(Br)c(O)c(Br)c2)cc1Cl ... 0 (no)

Ask: Hi team, for `COc1cc(CCc2cc(Br)c(O)c(Br)c2)cc(OC)c1` , is the recorded Activity at or above 40%?
Reply: 0 (no)

Ask: Please answer likewise for `O=C(Nc1cc(Br)c(O)c(Br)c1)c1cc(F)cc(F)c1`
Reply: 0 (no)

====

Listing of recorded Activity by entry.
TARGET: UniProt:P02766
EXPERIMENT SUMMARY: Displacement of 4-fluorophenyl 3-(4-hydroxy-3,5-dimethylstyryl)benzoate from recombinant TTR assessed as fluorescence at 37 degC after 3 hrs
Parameters: concentration or dose not given beside the values
Your answer is read as %, so omit the unit and give the number.

Observe how each entry below is paired with its result.
Oc1c(Br)cc(CCc2cccc(C(F)(F)F)c2)cc1Br ... -6
Cc1cccc(CCc2cc(Br)c(O)c(Br)c2)c1 ... -7
O=C(O)c1cccc(C(=O)Nc2cc(Br)c(O)c(Br)c2)c1 ... 77
COc1ccccc1/C=C/c1cc(Br)c(O)c(Br)c1 ... -6
O=C(Nc1cc(Br)c(O)c(Br)c1)c1cccc(Cl)c1 ... 13

Now consider a different compound.
Ask: Can you share its Activity? I mean this compound: `O=C(Nc1cc(Br)c(O)c(Br)c1)c1cccc(O)c1`
Reply: 26

====

TARGET: Transthyretin (Homo sapiens)
EXPERIMENT SUMMARY: Displacement of S-phenyl 3-(4-hydroxy-3,5-dimethylstyryl)benzothioate from human TTR assessed as fluorescence at 37 degC after 3 hrs
Design: concentration or dose not given beside the values
Hi! Could you tag entries with Activity below 80% as Criterion met, and those at or above as Criterion not met? Much appreciated.

// below: answered molecules
O=C(Nc1ccccc1)Nc1cc(Br)c(O)c(Br)c1 ... Criterion not met
O=C(Nc1cc(Br)c(O)c(Br)c1)c1cc(F)cc(F)c1 ... Criterion met
Cc1cccc(Nc2ccccc2C(=O)O)c1C ... Criterion not met
Nc1cccc(C(=O)Nc2cc(Br)c(O)c(Br)c2)c1 ... Criterion met

Ask: Criterion: Activity strictly below 80%. Is it met by `Brc1cc(Br)cc(Nc2ccccc2)c1` ?
Reply: Criterion not met

Ask: // repeat for `O=C(O)c1cc(-c2ccc(F)cc2F)ccc1O` and report
Reply: Criterion not met

Ask: Request: `O=C(O)Cc1ccccc1Nc1c(Cl)cccc1Cl`
Reply: Criterion not met

Ask: Quick one: `O=C(Nc1cc(Br)c(O)c(Br)c1)c1cccc(Br)c1`
Reply: Criterion met

Ask: Next molecule: `COc1cc(CCc2cc(Br)c(O)c(Br)c2)cc(OC)c1`
Reply: Criterion met

Ask: Consider next the molecule `Cc1ccc(Cl)c(Nc2ccccc2C(=O)O)c1Cl` in the same way.
Reply: Criterion not met

Ask: `COc1c(Br)cc(C(=O)Nc2cc(Br)c(O)c(Br)c2)cc1Br` ?
Reply: Criterion met

Ask: And then `O=C(Nc1cc(Br)c(O)c(Br)c1)c1cccc(Cl)c1` , what is it?
Reply: Criterion met

Ask: Next: `COc1ccccc1/C=C/c1cc(Br)c(O)c(Br)c1`
Reply: Criterion met

Ask: Could you do the same for `O=C(Nc1cc(Br)c(O)c(Br)c1)c1cccc(O)c1` , please?
Reply: Criterion met

Ask: Check `COc1c(Cl)cc(C(=O)Nc2cc(Br)c(O)c(Br)c2)cc1Cl` too.
Reply: Criterion met

Ask: Next molecule: `O=C(Nc1cc(Br)c(O)c(Br)c1)c1cccc(F)c1`
Reply: Criterion met

====

Reported Activity by item:
TARGET: Transthyretin (Homo sapiens)
EXPERIMENT SUMMARY: Inhibition of wild type-TTR expressed in Escherichia coli assessed as amyloid fibril formation at pH 4.4 at 7. 2 uM after 72 hrs by acid-mediated aggregation assay relative to control
Design: scale not given: the % may be the effect or the level left
Write down the numeric answer in % and omit the unit.

Cc1cccc(Nc2ccccc2C(=O)O)c1C ... 7
O=C(O)c1ccccc1Nc1cccc(C(F)(F)F)c1 ... 2
Oc1c(Br)cc(/C=C/c2ccc(Br)cc2)cc1Br ... 2
O=C(O)c1cccc(C(=O)Nc2cc(Br)c(O)c(Br)c2)c1 ... 11

Ask: Data request, read-out Activity, for `Cc1cccc(CCc2cc(Br)c(O)c(Br)c2)c1`
Reply: 3

====

TARGET: Transthyretin (Homo sapiens) (UniProt P02766)
EXPERIMENT SUMMARY: Displacement of 4-fluorophenyl 3-(4-hydroxy-3,5-dimethylstyryl)benzoate from recombinant TTR assessed as fluorescence at 37 degC after 3 hrs
Parameters: concentration or dose not given beside the values
READOUT KIND: Activity (%)
Kindly answer with a numeric value in %, unit omitted.

COc1c(Br)cc(C(=O)Nc2cc(Br)c(O)c(Br)c2)cc1Br ... 4
Cc1cccc(Nc2ccccc2C(=O)O)c1C ... 65

Ask: Item: `Oc1c(Br)cc(CCc2ccc(OC(F)F)cc2)cc1Br` Test system: Transthyretin (Homo sapiens) (UniProt P02766) Read-out: Activity Value: ?
Reply: -3

Ask: What do you have for `Nc1cccc(C(=O)Nc2cc(Br)c(O)c(Br)c2)c1` ?
Reply: 35

Ask: Note, next up: `Brc1cc(Br)cc(Nc2ccccc2)c1`
Reply: 76

Ask: `O=C(O)c1ccc(C(=O)Nc2cc(Br)c(O)c(Br)c2)cc1` , same question.
Reply: 57
